# assayExplanation: Drug uptake in C57BL/6 mouse brain at 10 mg/kg by LC-MS/MS analysis
# Format: ADME, organism-based
# conditionLabel: in vivo
assayReadout: Drug uptake

Complete the entry with Drug uptake for COc1ccc2nc(N[C@@H](c3ccc(O)cc3)P(=O)(OC)OC)sc2c1
4 to 50 ng/mL

====

# assayExplanation: Cmax in C57BL/6 mouse at 10 mg/kg by LC-MS/MS analysis
# Assay type: ADME, organism-based
# Design: dose 10 mg/kg
# conditionLabel: in vivo
assayReadout: Cmax

Quick one: give measured Cmax for COc1ccc2nc(N[C@@H](c3ccc(O)cc3)P(=O)(OC)OC)sc2c1
4.8 ng/mL
